Data provenance: PubChem BioAssay AID1024

- measured.on: Cytochrome P450 2C9 (Homo sapiens)
- procedure.summary: enhancers of cytochrome P450 2C9 turnover – biochemical, luminescence, primary screen (AID 1024);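 further: 0 = sulfaphenazole-blocked wells and 1 = vehicle-only wells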
- run.conditions: recombinant CYP2C9, luciferin-H conversion, at 5 µM, active compounds read high, factor 1 = untreated enzyme, 0 = blocked
The whole screen tested about 96,000 compounds, of which about 1,400 (1.5%) were called active. The full list was thinned out, with actives kept by preference.
activation factor of 1 or higher: true. Under 1: false.

Query string: Reported activation factor at or above 1? "Cc1ccc(OC(=O)c2ccccc2C(=O)OCC(F)(F)C(F)F)cc1"
Result string: false

Query string: // inclusive: activation factor at least 1? input: "Cc1cc(C)c(S(=O)(=O)NCCCN2CCOCC2)cc1Br"
Result string: true

Query string: Please indicate if the recorded activation factor for "COc1ccc(NC(=O)CN2CCN(S(=O)(=O)c3ccc(F)cc3)CC2)cc1Cl" meets or exceeds 1.
Result string: false

Query string: Please tell me: is the molecule "CCOC(=O)c1sc2nc(SC)nc(-c3ccccc3)c2c1N" at or over 1 in terms of activation factor?
Result string: false

====

- measured.on: Cytochrome P450 2C9 (Homo sapiens)
- procedure.summary: enhancers of cytochrome P450 2C9 turnover – biochemical, luminescence, primary screen (AID 1024);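 further: 0 = sulfaphenazole-blocked wells and 1 = vehicle-only wells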
- run.conditions: recombinant CYP2C9, luciferin-H conversion, at 5 µM, active compounds read high, factor 1 = untreated enzyme, 0 = blocked
Hit rate of the full screen: of about 96,000 compounds, about 1,400 (1.5%) were called active. Only a selection was taken, and actives are over-represented in it overall.
For each of the compounds below, state its activation factor.
Answers are plain numbers.

Example results:
O=C(N/N=C/c1ccsc1)c1cc(O)cc(O)c1: 0.9
CCCn1c(C(Cc2ccccc2)NC(=O)COC)nc2ccccc21 (stereo not drawn): 0.3
CC(NC(=O)c1cc(-c2ccccc2)on1)c1ccccc1 (stereo not drawn): 1.2

Give me activation factor for each of these compounds, listed below.
1. O=C(CSCc1ccc([N+](=O)[O-])cc1)NCCSCc1ccccc1
2. CCOc1ccccc1NC(=O)CCN1CCN(S(=O)(=O)c2ccc(OC)cc2)CC1
3. Cc1cccc(C)c1NC(=O)c1ccc(CN2CCc3ccccc3C2)cc1

Result string:
1. 0.6
2. 0.6
3. 1.1

Record activation factor for all entries; do not skip any.
1. COc1ccc(OC)c(NC(=O)c2cnn(-c3ccccc3Cl)c2NC(=O)c2ccco2)c1
2. Cc1nc(C)c(C(=O)Nc2cccc(C)c2C)o1
3. O=C(Nc1ccccc1C(F)(F)F)c1cc(-c2ccc(O)cc2)on1
4. Cc1ccc(CNC(=O)c2ccccc2CCc2ccccc2)cc1
5. Cc1c(Nc2nc3ccccc3nc2NS(=O)(=O)c2cccs2)c(=O)n(-c2ccccc2)n1C
6. COc1ccccc1C(=O)Nc1ccc(NC(=O)c2ccco2)c(C)c1
7. CCOC(=O)N1CCN(CC(=O)c2c(C)[nH]c3ccccc23)CC1

Result string:
1: 0.8; 2: 1; 3: 3.3; 4: 0.7; 5: 0.5; 6: 2.8; 7: 1.6

====

- measured.on: Cytochrome P450 2C9 (Homo sapiens) (UniProt P11712)
- Sequence (P11712 whole entry, looked up): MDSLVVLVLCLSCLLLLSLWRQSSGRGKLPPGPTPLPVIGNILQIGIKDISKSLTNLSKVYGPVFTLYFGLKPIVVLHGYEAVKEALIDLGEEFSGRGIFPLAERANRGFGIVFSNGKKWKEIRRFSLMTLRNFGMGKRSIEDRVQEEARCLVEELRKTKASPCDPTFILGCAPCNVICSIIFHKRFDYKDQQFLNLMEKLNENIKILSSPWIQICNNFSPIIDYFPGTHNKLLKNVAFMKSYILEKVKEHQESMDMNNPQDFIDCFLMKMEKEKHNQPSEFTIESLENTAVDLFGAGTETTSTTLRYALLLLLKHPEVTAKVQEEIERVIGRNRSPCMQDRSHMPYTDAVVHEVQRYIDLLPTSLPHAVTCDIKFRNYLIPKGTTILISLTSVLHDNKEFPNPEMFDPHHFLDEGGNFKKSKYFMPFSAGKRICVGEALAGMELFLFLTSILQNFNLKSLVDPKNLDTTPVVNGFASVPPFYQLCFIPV
- procedure.summary: enhancers of cytochrome P450 2C9 turnover – biochemical, luminescence, primary screen (AID 1024);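 further: 0 = sulfaphenazole-blocked wells and 1 = vehicle-only wells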
- run.conditions: recombinant CYP2C9, luciferin-H conversion, at 5 µM, active compounds read high, factor 1 = untreated enzyme, 0 = blocked
The whole screen tested about 96,000 compounds, of which about 1,400 (1.5%) were called active. The sample as a whole holds a higher share of actives than the screen did.
Values of activation factor greater than or equal to 1 map to YES; values below map to NO.

O=S(=O)(c1cccs1)N1CCc2ccccc2C1: YES
O=C(CCS(=O)(=O)c1cccc2nsnc12)N1CCN(c2ccccc2F)CC1: YES
COc1cc(/C=N\NC(=O)CNC(=O)c2cccc([N+](=O)[O-])c2)ccc1O: YES
COc1ccc(OC)c(/C=N/NC(=O)CSc2nnc(C)n2-c2ccccc2)c1: NO
Cc1cc(C)c2c(-n3cccc3)c(C(=O)NNS(=O)(=O)c3ccc(F)cc3)sc2n1: NO

Query string: activation factor >= 1 for CCC(C)NC(=O)c1cc(Cl)ccc1OC (stereo not drawn) ?
Result string: YES

Query string: Quick check: does "O=C(NCCc1ccccn1)c1cc(C(=O)C2CCCCC2)c[nH]1" have activation factor greater than or equal to 1?
Result string: NO

Query string: Is activation factor for "Cc1ccc(S(=O)(=O)NCCN2CCOCC2)cc1C" at or above 1?
Result string: NO

Query string: # check: activation factor of "Cc1nc(Cl)c2oc3ccccc3c2n1" is greater than or equal to 1
Result string: NO

Query string: Form field: activation factor at least 1? Entry: Cc1cc(C)c2c3c(sc2n1)C(c1ccccc1)C(C#N)=C(N)O3 (stereo not drawn)
Result string: NO

====

- measured.on: Cytochrome P450 2C9 (Homo sapiens)
- procedure.summary: enhancers of cytochrome P450 2C9 turnover – biochemical, luminescence, primary screen (AID 1024);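 further: 0 = sulfaphenazole-blocked wells and 1 = vehicle-only wells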
- run.conditions: recombinant CYP2C9, luciferin-H conversion, at 5 µM, active compounds read high, factor 1 = untreated enzyme, 0 = blocked
The whole screen tested about 96,000 compounds, of which about 1,400 (1.5%) were called active. The entries come from a sample that favours actives as a whole.
readout.name: activation factor
Give bare numbers.

Check out these entries, answers already filled in.
CCOc1ccccc1Nc1nnc(SCC(=O)Nc2cc(C)on2)s1: 0.9
O=c1c2ccccc2nc2n1C(CSCc1ccccc1)CS2 (stereo not given): 0.9
Cc1nc(C)c(C(=O)Nc2ccc(C)c(F)c2)o1: 1
CCC(=O)Nc1ccc(S(=O)(=O)NCC2CCCO2)cc1 (stereo not given): 1

Continue with the molecule presented below.
response.value for "O=C(CNS(=O)(=O)c1cccc(C(F)(F)F)c1)Nc1ccccc1F" (field: activation factor) = 1.2

====

- measured.on: Cytochrome P450 2C9 (Homo sapiens)
- procedure.summary: enhancers of cytochrome P450 2C9 turnover – biochemical, luminescence, primary screen (AID 1024);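 further: 0 = sulfaphenazole-blocked wells and 1 = vehicle-only wells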
- run.conditions: recombinant CYP2C9, luciferin-H conversion, at 5 µM, active compounds read high, factor 1 = untreated enzyme, 0 = blocked
Screen size: about 96,000 compounds; about 1,400 (1.5%) were called active. What follows is part of a selection rich in actives, with near analogues and random picks from the rest.
readout.name: activation factor

Examples with answers:
CCCCNCc1ccc(SC)cc1: 1 (inactive)
Cc1nc2ccc(NC(=O)C(F)(F)F)cc2o1: 1 (inactive)
Cc1cccc(C)c1NC(=O)CCS(=O)(=O)c1cccc2nsnc12: 1 (inactive)

Hi there! I need activation factor for each item below, if you can.
1. O=C(CN1CCOCC1)Nc1ccc(NC(=O)CN2CCOCC2)c(Cl)c1
2. COc1cc(OC)c(C(=O)Nc2ccc(N(C)C)cc2)cc1OC
3. O=S(=O)(c1cccs1)N1CCN(Cc2ccccc2)CC1
4. CC1(C)CC(=O)C2=C(C1)N=C1SCCC(=O)N1C2c1ccc(C(F)(F)F)cc1 (stereo not drawn)

Result string:
["1 (inactive)", "0.7 (inactive)", "0.3 (inactive)", "1.2 (inactive)"]

Batch: activation factor for all items listed.
1. Cc1ccc(N2CCN(/N=C/c3cccs3)CC2)cc1
2. O=C(C(NS(=O)(=O)c1cccc2nsnc12)c1ccccc1)N1CCN(c2ccccc2)CC1 (stereo not drawn)
3. Cc1c(Nc2cc(N3CCCC(C)C3)c3nonc3c2[N+](=O)[O-])c(=O)n(-c2ccccc2)n1C (stereo not drawn)
4. COc1ccccc1C(=O)C(O)c1ccccc1OC (stereo not drawn)
5. COc1ccc(Cl)cc1S(=O)(=O)Nc1cccc(C(=O)O)c1

Result string:
1: 1.1 (inactive); 2: 0 (inactive); 3: 0.6 (inactive); 4: 1 (inactive); 5: 0.9 (inactive)

====

- measured.on: Cytochrome P450 2C9 (Homo sapiens)
- procedure.summary: enhancers of cytochrome P450 2C9 turnover – biochemical, luminescence, primary screen (AID 1024);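 further: 0 = sulfaphenazole-blocked wells and 1 = vehicle-only wells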
- run.conditions: recombinant CYP2C9, luciferin-H conversion, at 5 µM, active compounds read high, factor 1 = untreated enzyme, 0 = blocked
About 1,400 (1.5%) of roughly 96,000 compounds were called active. What follows is part of a selection rich in actives, with near analogues and random picks from the rest.
readout.name: activation factor
One number for each entry.

These recorded examples may help you get a feel for the data.
COc1ccccc1CNS(=O)(=O)c1ccc(C)cc1: 2.6
COC(=O)c1sccc1NC(=O)c1csc2c1CCCC2: 0.9

Go through the items and report each one's activation factor.
1. CCOC(=O)c1c(NC(=O)c2ccc(N3CCOCC3)c([N+](=O)[O-])c2)sc(C)c1C
2. O=C(CN1CCOCC1)Nc1cc(Cl)ccc1Cl
3. O=C(NCc1ccccc1Cl)c1csc2c1CCCCC2

Result string:
1: 0.9; 2: 2.4; 3: 2.5

State recorded activation factor for all listed compounds.
1. Cc1nc(SCC(=O)N2CC(=O)Nc3ccccc32)c2c(C)c(C)sc2n1
2. O=C(CSc1nc(C2CC2)nc2ccccc12)Nc1ccc2c(c1)OCCO2
3. CC(C)C(C)NC(=O)COc1ncnc2ccccc12 (stereo unspecified)

Result string:
1: 0.4; 2: 0.6; 3: 0.9

Required: activation factor, one value per compound below.
1. COc1ccc(S(=O)(=O)N2CCCC(C(=O)N3CCN(C)CC3)C2)cc1C (stereo unspecified)
2. CC(C)(C)NC(=O)NC(=O)COC(=O)CCC1CCCCC1
3. COc1ccc(S(=O)(=O)Nc2ccc(F)cc2)c(C)c1C
4. COc1ccc(Cl)cc1C(=O)NCc1cn(C)nc1C
5. CCOc1ccc(NC(=O)Nc2ccc(N(C)C(C)=O)cc2)cc1
6. COc1ccc(Cl)cc1S(=O)(=O)N1CCN(CC(=O)C(C)(C)C)CC1
7. COC(=O)Cc1cc(=O)oc2c(C)c(O)ccc12

Result string:
1.2
0.9
0.3
1
1.1
2.4
1.2

Tested system Cytochrome P450 2C9 (Homo sapiens); activation factor recorded for "COc1cc(C(=S)N2CCOCC2)cc(OC)c1OC(=O)c1cc([N+](=O)[O-])c(C)c([N+](=O)[O-])c1" was 0.9
